Biological target: feline FcRn complex (FcRn-α subunit and β-microglobulin) (feline)
Test: SPR (Biacore), FcRn on SA chip, pH 7.4
property_label: Kd (nM)
The answer is to be given in nM; state only the numeric part.

feline IgG1a mutant ID No. 331: S428Y, D312P, S434Y, Q311M, L314K (antibody, part only; not given: Variable domains, not shown: another chain or arm of the molecule; small tags and cut ends) constant: ASTTAPSVFPLAPSCGTTSGATVALACLVLGYFPEPVTVSWNSGALTSGVHTFPAVLQASGLYSLSSMVTVPSSRWLSDTFTCNVAHPPSNTKVDKTVRKTDHPPGPKPCDCPKCPPPEMLGGPSIFIFPPKPKDTLSISRTPEVTCLVVDLGPDDSDVQITWFVDNTQVYTAKTSPREEQFNSTYRVVSVLPILHMPWKKGKEFKCKVNSKSLPSPIERTISKAKGQPHEPQVYVLPPAQEELSRNKVSVTCLIKSFHPPDIAVEWEITGQPEPENNYRTTPPQLDSDGTYFVYSKLSVDRSHWQRGNTYTCSVYHEALHYHHTQKSLTQSPGK	14.6

Could you tell me which Kd is on file for feline IgG1a mutant ID No. 334: S428Y, D312P, S434Y, T250Q, S252H (antibody, part only; not given: Variable domains, not shown: another chain or arm of the molecule) constant: ASTTAPSVFPLAPSCGTTSGATVALACLVLGYFPEPVTVSWNSGALTSGVHTFPAVLQASGLYSLSSMVTVPSSRWLSDTFTCNVAHPPSNTKVDKTVRKTDHPPGPKPCDCPKCPPPEMLGGPSIFIFPPKPKDQLHISRTPEVTCLVVDLGPDDSDVQITWFVDNTQVYTAKTSPREEQFNSTYRVVSVLPILHQPWLKGKEFKCKVNSKSLPSPIERTISKAKGQPHEPQVYVLPPAQEELSRNKVSVTCLIKSFHPPDIAVEWEITGQPEPENNYRTTPPQLDSDGTYFVYSKLSVDRSHWQRGNTYTCSVYHEALHYHHTQKSLTQSPGK ?
19.9

Please do the same for feline IgG1a mutant ID No. 337: S252Y, S428M, S434F, D312H (antibody, part only; not given: Variable domains, not shown: another chain or arm of the molecule) constant: ASTTAPSVFPLAPSCGTTSGATVALACLVLGYFPEPVTVSWNSGALTSGVHTFPAVLQASGLYSLSSMVTVPSSRWLSDTFTCNVAHPPSNTKVDKTVRKTDHPPGPKPCDCPKCPPPEMLGGPSIFIFPPKPKDTLYISRTPEVTCLVVDLGPDDSDVQITWFVDNTQVYTAKTSPREEQFNSTYRVVSVLPILHQHWLKGKEFKCKVNSKSLPSPIERTISKAKGQPHEPQVYVLPPAQEELSRNKVSVTCLIKSFHPPDIAVEWEITGQPEPENNYRTTPPQLDSDGTYFVYSKLSVDRSHWQRGNTYTCSVMHEALHFHHTQKSLTQSPGK as well.
8.96

What do you get for feline IgG1a mutant ID No. 268: S252F, S434H, Q311W (antibody, part only; not given: Variable domains, not shown: another chain or arm of the molecule) constant: ASTTAPSVFPLAPSCGTTSGATVALACLVLGYFPEPVTVSWNSGALTSGVHTFPAVLQASGLYSLSSMVTVPSSRWLSDTFTCNVAHPPSNTKVDKTVRKTDHPPGPKPCDCPKCPPPEMLGGPSIFIFPPKPKDTLFISRTPEVTCLVVDLGPDDSDVQITWFVDNTQVYTAKTSPREEQFNSTYRVVSVLPILHWDWLKGKEFKCKVNSKSLPSPIERTISKAKGQPHEPQVYVLPPAQEELSRNKVSVTCLIKSFHPPDIAVEWEITGQPEPENNYRTTPPQLDSDGTYFVYSKLSVDRSHWQRGNTYTCSVSHEALHHHHTQKSLTQSPGK ?
10700
